I'd be grateful if you could share measured growth for these entries.
Test system: EKVX NSCLC
TEST_METHOD_NOTES: NCI-60 one-dose screen, 48 h (100 = growth as untreated, 0 = no growth, -100 = all killed)
CONDITION_NOTES: 10 µM unless noted
Compounds without any hit were thinned out: in the full panel of roughly 83,000, 20% have a hit.
Numbers only, in %.

# example entries with known answers
Clc1nc(Cl)c2ncn(CCOCCn3cnc4c(Cl)nc(Cl)nc43)c2n1 = -91.1
Cc1cccc(C)c1-c1cc(Cc2ccc(Cl)cc2)c(=O)[nH]n1 = 92.8
COc1ccc(NC(=O)c2sc3nc(C)c(C(=O)c4ccc(OC)cc4)cc3c2N)cc1 = 68.5
CC(=O)N1N=C(c2cccc(Nc3ccncc3)c2)CC1c1ccc2c(c1)OCO2 (configuration not stated) = 63
CC(C)Cc1ccc(C(C)C(=O)NCc2c[nH]c3ccc(Cl)cc23)cc1 (configuration not stated) = 85.9
COc1ccc(C(=O)c2cc(C)c(OC)c(C)c2)c(OC)c1O = 59.2

Shift focus to the following entry.
Q. Look up and report measured growth for this entry: Nc1ccccc1NC(=O)c1ccc(CN2CCC/C(=C\c3cccc(Cl)c3)C2=O)cc1
A. 20.4

----------
System: KM12 colon
TEST_METHOD_NOTES: NCI-60 one-dose screen, 48 h (100 = growth as untreated, 0 = no growth, -100 = all killed)
CONDITION_NOTES: 10 µM unless noted
The panel holds about 83,000 compounds, 20% with a hit somewhere; the sample as a whole holds those more often. Active and inactive are the calls of the source. The calls were made as follows: active = growth percent below 10; inactive = the rest.
I'd be grateful if you could share measured growth for these entries.

# example entries with known answers
CC1(C)CC[C@]2(C(=O)NCC#CCN3CCOCC3)CC[C@]3(C)C(=CC[C@@H]4[C@@]5(C)Cc6c([nH]c7ccccc67)C(C)(C)[C@@H]5CC[C@]43C)[C@@H]2C1 = 91.3% (inactive)
CC(C)Cc1ccc(C(C)C(=O)NCc2c[nH]c3ccc(Cl)cc23)cc1 (stereo not drawn) = 83.5% (inactive)
CC(=O)[C@@H]1CC[C@]2(C(=O)n3ccnc3)CC[C@]3(C)[C@H](CC[C@@H]4[C@@]5(C)Cc6c([nH]c7ccccc67)C(C)(C)[C@@H]5CC[C@]43C)[C@@H]12 = 84.2% (inactive)
Cc1ccc2[nH]c(=S)n(-c3ccc(S(=O)(=O)Nc4ccc(Cl)nn4)cc3)c(=O)c2c1 = 104% (inactive)
COc1ccc(-c2cnc(N)nc2-c2ccc(OC)cc2O)cc1 = 45.5% (inactive)

Hi there! I need growth for each item below, if you can.
1. COc1ccc(/C=N/NC(=O)c2cccc3cc[nH]c23)cc1O
2. O=C(/C=C\c1ccc(OCCCCCC[P+](c2ccccc2)(c2ccccc2)c2ccccc2)cc1)c1ccc2c(c1)OCCO2
3. Cc1ccc(C2CC(c3cccc(Nc4ccncc4)c3)=NN2c2cc(Cl)cc(Cl)c2)cc1 (stereo not drawn)
4. COc1cccc(CCC(=O)c2cc3c(N)c(C(=O)Nc4cccc(Cl)c4C)sc3nc2C)c1
5. COc1ccncc1C#Cc1cncc(C(=O)Nc2ccc(CN3CCN(C)CC3)c(C(F)(F)F)c2)c1
6. CCN(CC)CCCCCCNc1cc(OC)cc2cccnc12

A.
29.8% (inactive)
-76.4% (active)
-67.5% (active)
19.6% (inactive)
6.75% (active)
76% (inactive)

Hi there! I need growth for each item below, if you can.
1. O=C1CCCN1c1cccc2cccnc12
2. COc1cc2c(cc1[N+](=O)[O-])-c1ccc([N+](=O)[O-])cc1/C2=N\O
3. O=C(Nc1ccc2cc3ccc(NC(=O)N4CCCCCC4)cc3nc2c1)N1CCCCCC1
4. FC(F)(F)Oc1cccc(-c2cc(NCCCCCCNc3cc(-c4cccc(OC(F)(F)F)c4)nc4ccc(N5CCCC5)cc34)c3cc(N4CCCC4)ccc3n2)c1
5. CC(=O)c1c[nH]c2ccc(-c3ccnc(Nc4ccc(NC(=O)c5cccc(F)c5)c(CN5CCOCC5)c4)n3)cc12
6. Fc1ccccc1CSc1ncnc2nc[nH]c12
7. O=C(O)CNC(=O)CN1C(=O)c2ccccc2C1=O
8. O=C(CCN1CCCC1)Nc1ccc2c(NCc3ccc(F)cc3)c3ccccc3nc2c1

A.
["102% (inactive)", "95.1% (inactive)", "-65.9% (active)", "-90.4% (active)", "-7.43% (active)", "112% (inactive)", "115% (inactive)", "-6.48% (active)"]

Hi there! I need growth for each item below, if you can.
1. CNC(=O)NCC1OC(n2cnc3c(NC(=O)Nc4ccccc4)ncnc32)C(O[Si](C)(C)C(C)(C)C)C1O[Si](C)(C)C(C)(C)C (stereo not drawn)
2. CCOC(=O)C1=C(C)NC(C)=C(C(=O)OCC)C1c1cc(Br)c(O)c(OC)c1

A.
["-3.66% (active)", "23.6% (inactive)"]

----------
Test system: U251 CNS
TEST_METHOD_NOTES: NCI-60 one-dose screen, 48 h (100 = growth as untreated, 0 = no growth, -100 = all killed)
CONDITION_NOTES: 10 µM unless noted
This is part of a sample that, as a whole, favours compounds with a hit. Of some 83,000 tested, about 20% had one in any assay. Calls of active or inactive are those of the source. The calls were made as follows: active = growth percent below 10; inactive = the rest.
I'd be grateful if you could share measured growth for these entries.

# example entries with known answers
COc1ccc(-c2nc(SCCC(C)C)nc(N/N=C(/C)c3ccc(C)cc3)c2C#N)cc1 = 103% (inactive)
COc1cc(Nc2cc(O)c3c(=O)cc(-c4ccccc4)oc3c2)cc(OC)c1 = 22.8% (inactive)

Hi there! I need growth for each item below, if you can.
1. Nc1c(Cl)cc([N+](=O)[O-])cc1Br
2. O=c1[nH]nc(-c2ccc(Br)cc2)cc1Cc1ccc(O)cc1
3. COc1ccc(CNCCN2C(=O)c3ccc4c5c(ccc(c35)C2=O)C(=O)N(CCNCc2ccc(OC)cc2)C4=O)cc1
4. CS(=O)(=O)c1ccc(-c2cc(-c3nnc(SCC(=O)Nc4ccc(C(=O)/C=C/c5ccc(Cl)cc5)cc4)n3-c3ccccc3)c3ccccc3n2)cc1
5. CN1CCN(C(=O)OCc2nc3c(N4CCOCC4)nc(-c4ccccc4)nc3n2C)CC1

A.
101% (inactive)
105% (inactive)
-91.8% (active)
90.9% (inactive)
-54.2% (active)

----------
I'd be grateful if you could share measured growth for these entries.
Test system: NCI-H322M lung
TEST_METHOD_NOTES: NCI-60 one-dose screen, 48 h (100 = growth as untreated, 0 = no growth, -100 = all killed)
CONDITION_NOTES: 10 µM unless noted
Compounds without any hit were thinned out: in the full panel of roughly 83,000, 20% have a hit.
Answers are plain numbers, in %.

O=C(Nc1cccc(Cl)c1)Oc1c(Br)c(Br)c(Br)c(Br)c1Br = 107
O=C1c2cccnc2C(=O)c2nc3cc(N4CCN(C5CC5)CC4)ccc3nc21 = -96.7
CS(=O)(=O)c1ccc(-c2cc(-c3nnc(SCC(=O)Nc4ccc(C(=O)/C=C/c5ccc(Cl)cc5)cc4)n3-c3ccccc3)c3ccccc3n2)cc1 = 89.8

Hi there! I need growth for each item below, if you can.
1. CC[C@@]12C=CCN3CC[C@]4(c5cc(NC(=O)COc6cc(OCC(=O)Nc7cc8c(cc7OC)N(C)[C@H]7[C@@](O)(C(=O)OC)[C@H](OC(C)=O)[C@]9(CC)C=CCN%10CC[C@]87[C@@H]%109)cc7oc(-c8ccccc8)cc(=O)c67)c(OC)cc5N(C)[C@@H]4[C@](O)(C(=O)OC)[C@H]1OC(C)=O)[C@H]32
2. COc1ccc(C2=C(c3ccccc3)c3ccc(OC(C)=O)cc3OC2(C)C)cc1
3. Cc1cccc(Oc2ccc(Nc3ncnc4ccc(NC(=O)CNCCO)cc34)cc2Cl)c1

A.
1: 45.9; 2: 102; 3: 18.9

----------
Test system: HCC-2998 colon
TEST_METHOD_NOTES: NCI-60 one-dose screen, 48 h
CONDITION_NOTES: 10 µM unless noted
Compounds without any hit were thinned out: in the full panel of roughly 83,000, 20% have a hit. Calls of active or inactive are those of the source. Rule for the calls: active = growth percent below 10; inactive = the rest.
Allowed answers: y = active, n = inactive

COc1ccccc1/C=N/NC1=NC2C(N1)N(C)C(=O)N2C (configuration not stated) = n
COc1ccc(CC(C)=C(c2ccc(OCCN(C)C)cc2)c2ccc(OCCN(C)C)cc2)cc1 = n

Q. In this assay, the call recorded for CCSc1ccc2c(c1)N(CCCN1CCN(C)CC1)c1ccccc1S2 was what?
A. n

Q. In this assay, the call recorded for COc1cccc(NC(=O)c2cccc(-c3cc(=O)c4c(OC)c(OC)c(OC)cc4o3)c2)c1 was what?
A. n

Q. In this assay, the call recorded for COc1ccc2c(c1)OC13Oc4cc(OC)ccc4C=C1CCCC3=C2 was what?
A. n

Q. In this assay, the call recorded for COc1ccc(C(=O)/C=C/c2cn(Cc3ccc(Cl)cc3)c3ccccc23)cc1 was what?
A. n

Q. In this assay, the call recorded for C=C1C(=O)O[C@H]2[C@H]1CC/C(COC(=O)/C=C/c1c[nH]c3ccccc13)=C\CC[C@@]1(C)O[C@@H]21 was what?
A. y

Q. In this assay, the call recorded for N#Cc1ccc(-c2ccc3c(c2)NC(=O)/C3=C\c2ccc[nH]2)cc1 was what?
A. n

Q. In this assay, the call recorded for COc1ccc(NS(=O)(=O)c2ccc(C)cc2)c([N+](=O)[O-])c1 was what?
A. n
